Source of measurements: PubChem BioAssay (NCI)

What growth was measured for each of the following?
- Test system: SF-295 CNS
- Procedure Text: NCI-60 one-dose screen, 48 h (100 = growth as untreated, 0 = no growth, -100 = all killed)
- Measurement Setup: 10 µM unless noted
This is part of a sample that, as a whole, favours compounds with a hit. Of some 83,000 tested, about 20% had one in any assay.
Respond numerically; units are % and should not be typed.

# growth (compound: `c1cc(NCCc2ccncc2)nc(-n2cnc3ccccc32)c1` ) is 105

# growth (compound: `Cc1ccc(NC2=C(Cl)C(=O)c3nc(C)ccc3C2=O)cc1` ) is 62.1

# growth (compound: `O=C(/C=C/c1sc(Cl)nc1Cl)c1ccc(F)cc1` ) is 95.7

# growth (compound: `CCCCOc1nc2c(C)cccc2cc1-c1cc(-c2ccc(Cl)cc2)nc(-c2ccc(Cl)cc2)c1` ) is 101

# growth (compound: `CCOC(=O)c1cn2ncnc(Oc3ccc(NC(=O)NCCN(CC)CC)c(Cl)c3)c2c1C` ) is 92

###

- Tested on: EKVX NSCLC
- Procedure Text: NCI-60 one-dose screen, 48 h (100 = growth as untreated, 0 = no growth, -100 = all killed)
- Measurement Setup: 10 µM unless noted
Compounds without any hit were thinned out: in the full panel of roughly 83,000, 20% have a hit.
Measured Parameter: growth (%)
Respond numerically; units are % and should not be typed.

# growth (compound: `O=C(CCCCCCSc1nc(-c2ccccc2)cc(-c2ccccc2)n1)NO` ) is 57.1

# growth (compound: `COc1cccc2c(=O)c3c(sc12)c(NCCCN)nc1ccccc13` ) is 63.6

# growth (compound: Cc1ccc(C(=O)NN2C(=O)CSC2c2cccc([N+](=O)[O-])c2)cn1 (centres undefined) ) is 98.7

# growth (compound: CCN1C(=O)N(CC)C2Nn3c(s/c(=C4\C(=O)N(CCC(C)C)c5ccccc54)c3=O)=NC21 (centres undefined) ) is 67.1

###

- System: NCI-H322M lung
- Procedure Text: NCI-60 one-dose screen, 48 h (100 = growth as untreated, 0 = no growth, -100 = all killed)
- Measurement Setup: 10 µM unless noted
About 83,000 compounds went through this panel and 20% of them were active in at least one assay; those are over-represented in the sample as a whole.
What growth was measured for each of the following?
Respond numerically; units are % and should not be typed.

# growth (molecule: `Cc1cc2[nH]c(=O)c3c4ncccc4cn3c2cc1C` ) is 29.9

# growth (molecule: `O=C(CCN1C(=O)/C(=C/c2ccc(O)cc2)SC1=S)Nc1ccc(Cl)cc1` ) is 82.6

# growth (molecule: `COc1ccc(C2=Nn3c(nnc3-c3cc(Cl)cc(Cl)c3Cl)SC2)cc1` ) is 36.4

# growth (molecule: `CCOC(=O)c1c(C)nc2c(c1N)CC(=O)N2Cc1ccc(F)cc1` ) is 107

# growth (molecule: `CNCCCNc1nc2ccccc2c2c(=O)c3cc(OC)ccc3sc12` ) is 85.7

# growth (molecule: `COc1ccc(-c2nn(C(=O)c3cc(OC)c(OC)c(OC)c3)c3cc(N)ccc23)cc1` ) is 53.4

# growth (molecule: `CNCCCC12CCC(c3ccccc31)c1ccccc12` ) is 92

###

- Tested on: HS 578T breast
- Procedure Text: NCI-60 one-dose screen, 48 h (100 = growth as untreated, 0 = no growth, -100 = all killed)
- Measurement Setup: 10 µM unless noted
About 83,000 compounds went through this panel and 20% of them were active in at least one assay; those are over-represented in the sample as a whole.
Measured Parameter: growth (%)
Respond numerically; units are % and should not be typed.

# growth (compound: `CCCCn1c(=O)c(-c2cc(-c3ccc(Cl)cc3)nc(-c3ccc(Cl)cc3)c2)cc2ccc(Cl)cc21` ) is 108

# growth (compound: `COc1ccc(CN2c3ccccc3CCc3ccccc32)cc1F` ) is 30.2

# growth (compound: `N#Cc1c(-c2ccc(Cl)cc2)nc(NCCO)[nH]c1=O` ) is 109

# growth (compound: `C#C[C@]1(O)CC[C@H]2[C@@H]3CC=C4c5sc(Nc6ccccc6)nc5CC[C@]4(C)[C@H]3CC[C@@]21C` ) is -19.9

# growth (compound: `CCCCC[C@H](O)C/C=C1/C(=O)C=C[C@@H]1C/C=C\CCCC(=O)O` ) is 95.6

# growth (compound: O=C1NC(=O)C(Cn2cnc3ccccc32)N1 (centres undefined) ) is 107

# growth (compound: `CC1=C(C)C(=O)C(Nc2cccc(C(=O)OC(C)(C)C)c2)=C(Br)C1=O` ) is 92.8

# growth (compound: `CN(C)c1ccc(/C=N\Nc2cc(=O)[nH]c3ccc(Cl)cc23)cc1` ) is 82.8

# growth (compound: `Cc1c(C(=O)N[C@@H](Cc2ccccc2)C(=O)C(=O)NCc2ccc(F)cc2)[nH]c2ccccc2c1=O` ) is 105

# growth (compound: `CCOC(=O)c1cn2ncnc(Oc3ccc(NC(=O)NCCN(CC)CC)c(Cl)c3)c2c1C` ) is 77.7

# growth (compound: `Cc1cccc(NCc2cn(-c3ccc(C(=O)O)cc3)nc2-c2ccc(C(=O)O)cc2)n1` ) is 96.9

# growth (compound: `Cc1cc2[nH]c(=O)c3c4ncccc4cn3c2cc1C` ) is 101

# growth (compound: CC1=C(SCCC(=O)OC(C[Se]C2=C(C)C(=O)c3ccccc3C2=O)C(=O)NC(C)(C)C)C(=O)c2ccccc2C1=O (centres undefined) ) is -21.3

# growth (compound: `CCCCn1c(=O)c(-c2cc(-c3ccc(Cl)cc3)nc(-c3ccc(Cl)cc3)c2)cc2cc(C)ccc21` ) is 99.1

# growth (compound: `COc1ccc(NC(=O)n2nc(/C=C\c3ccc(O)c(OC)c3)cc2/C=C\c2ccc(O)c(OC)c2)cc1` ) is 28.7

# growth (compound: `Cc1nc2ccccc2c(/C=C/c2ccccc2)c1C(=O)/C=C/c1ccc(C(F)(F)F)cc1` ) is -10.9

# growth (compound: `CCOC(=O)/C=C1\S/C(=N\Nc2ccc([N+](=O)[O-])cc2[N+](=O)[O-])N(Cc2ccccc2)C1=O` ) is 84.3

# growth (compound: `C[C@H]1[C@H]2[C@H]3CC[C@@H]4[C@@]5(C)CC[C@H](O)C(C)(C)[C@@H]5CC[C@@]4(C)[C@]3(C)CC[C@]23CO[C@]1(C)[C@@H](C(=O)/C=C\c1cccnc1)C3` ) is 82

# growth (compound: `c1ccc(Cc2nn3cc(-c4ccccc4)nc3s2)cc1` ) is 115

# growth (compound: `CCCCNc1nc(NN2C(=O)c3cccc4cccc(c34)C2=O)nc(-n2cnc3ccccc32)n1` ) is 81.9

# growth (compound: `COc1cc(C(=O)c2cnc(-c3cccc4[nH]ccc34)[nH]2)cc(OC)c1OC` ) is 30.9

# growth (compound: `O=C(Nc1ccc(Cl)cc1F)c1ccccc1O` ) is 41.6

# growth (compound: `COc1ccc(C(=O)N=Nc2c(O)n(C)c3ccccc23)cc1` ) is 99.5

# growth (compound: N#CC1=C(N)Oc2c(sc3c(Br)cccc23)C1c1ccc(Br)cc1 (centres undefined) ) is 14.1

# growth (compound: `COc1ccc(-c2nnc(COc3ccc(Cl)cc3Cl)o2)cc1OC` ) is 4.73

# growth (compound: `O=c1c2cc(C(F)(F)F)ccc2sc2c(NCCCNCCO)nc3ccccc3c12` ) is -9.58

# growth (compound: `CCCCCCCCCCCCCCCCCCOc1ccccc1CCCOP(=O)(O)OCC[N+](C)(C)C` ) is 93.5

# growth (compound: `CSc1ncccc1C(=O)OCC(=O)Nc1oc(C)c2c(C)n[nH]c(=O)c12` ) is 104

# growth (compound: `CN(C)CCS(=O)(=O)Nc1cc(-c2ccc3ncc(C#N)c(Nc4ccc(F)c(Cl)c4)c3c2)cnc1Cl` ) is -10.5

###

- Tested on: OVCAR-4 ovarian
- Procedure Text: NCI-60 one-dose screen, 48 h (100 = growth as untreated, 0 = no growth, -100 = all killed)
- Measurement Setup: 10 µM unless noted
- Procedure: Growth inhibition of the OVCAR-4 human tumor cell line is measured as a screen for anti-cancer activity. Cells are grown in 96 well plates and exposed to the test compound for 48 hours. Compounds are tested at a single concentration, which is 10^-5 M for most compounds. The reported endpoint is percent growth (GI% or GIPRCNT), where numbers from 0 - 100% represent growth inhibition, and numbers from -100% - 0 represent cell death. For example, a value of 40 represents 60% growth inhibition. […]
About 83,000 compounds went through this panel and 20% of them were active in at least one assay; those are over-represented in the sample as a whole.
What growth was measured for each of the following?
Respond numerically; units are % and should not be typed.

growth for OVCAR-4 ovarian with input `COc1cc(C(=O)c2cnc(-c3cccc4[nH]ccc34)[nH]2)cc(OC)c1OC` equals 38.9

growth for OVCAR-4 ovarian with input COc1ccc(N2C(=O)C(Oc3ccccc3)C2c2ccc(C)cc2)cc1 (centres undefined) equals 93.4

growth for OVCAR-4 ovarian with input `CCN(CC)CCCNc1nc2ccccc2c2c(=O)c3cc(Cl)ccc3sc12` equals 45.1

growth for OVCAR-4 ovarian with input CCN(CC)c1ccc(C2=NN(C(C)=O)C(c3cc(OC)c(OC)c(OC)c3)C2)cc1 (centres undefined) equals 46.9

growth for OVCAR-4 ovarian with input `C/C(=C(/c1ccccc1)c1ccc(N2C(=O)c3cccc4c(N5CCN(C)CC5)ccc(c34)C2=O)cc1)c1ccccc1` equals 56.6

growth for OVCAR-4 ovarian with input `CCCCOc1nc2c(C)cccc2cc1-c1cc(-c2ccc(Cl)cc2)nc(-c2ccc(Cl)cc2)c1` equals 110

growth for OVCAR-4 ovarian with input `COc1cc(C(=O)/C=C/c2sc(Cl)nc2Cl)cc(OC)c1OC` equals 57.2

growth for OVCAR-4 ovarian with input Cc1ccc(C(=O)NN2C(=O)CSC2c2cccc([N+](=O)[O-])c2)cn1 (centres undefined) equals 95

growth for OVCAR-4 ovarian with input CC1(C)C2CC1C1(/C=N\Nc3ccccc3)C(C2)C(C#N)(C#N)C1(C#N)C#N (centres undefined) equals 82.5

growth for OVCAR-4 ovarian with input `CCCCCCNC(=O)Oc1ccc(/C(=C(\C)c2ccc(OC)cc2)c2ccc(OCCN3CCCCC3)cc2)cc1` equals 63.1

growth for OVCAR-4 ovarian with input `CCCCCCCCCCCCCCCCCCOc1ccccc1CCCOP(=O)(O)OCC[N+](C)(C)C` equals 89.9

growth for OVCAR-4 ovarian with input `COc1ccc(S(=O)(=O)n2c3ccccc3n3ncc(-c4nnc(C)o4)c23)cc1` equals 81.6

growth for OVCAR-4 ovarian with input `CC(C)n1cnc2c(Nc3cccc(Cl)c3)nc(N[C@H]3CCCC[C@@H]3N)nc21` equals 55.4

growth for OVCAR-4 ovarian with input `COc1cc(C(=O)/C=C/c2c(Cl)nc3sccn23)cc(OC)c1OC` equals 90.6
